Each entry below carries its recorded Anti-CD28 Fab (SEQ ID NOs: 202, 203) signal.
molecular target: T1, anti-CD28 Fab (SEQ ID NOs: 202, 203); assay: phage binding ELISA; biotinylated Fab on neutravidin plate;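 further: clonal phage supernatants added to Fab wells pretreated with CD28 antigen or with blocking buffer only, bound phage read out via HRP-linked anti-M13 antibody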
T1 construct: biotinylated and captured on neutravidin coated plates in the phage ELISA
T1 sequence (VH, as listed by the source, chain 1 of 2): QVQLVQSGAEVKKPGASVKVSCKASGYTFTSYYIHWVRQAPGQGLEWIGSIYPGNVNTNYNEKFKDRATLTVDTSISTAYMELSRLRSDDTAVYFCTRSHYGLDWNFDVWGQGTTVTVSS
T1 sequence (VL, as listed by the source, chain 2 of 2): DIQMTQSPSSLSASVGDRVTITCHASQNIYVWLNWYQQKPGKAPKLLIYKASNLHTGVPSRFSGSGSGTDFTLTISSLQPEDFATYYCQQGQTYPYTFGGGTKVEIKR
Just the number.

[[record]]
binder = "YCDGHVEEYLYKCL [Phage-310]"
readout_number = 1.9

[[record]]
binder = "YCEGHAAEYMSKCL [Phage-339]"
readout_number = 1.86

[[record]]
binder = "YCDGHTSEYITKCL [Phage-373]"
readout_number = 1.79


// field: Anti-CD28 Fab (SEQ ID NOs: 202, 203) signal; key: YCEGHSAEFMTKCL [Phage-363] ; value = 1.81

Query YCDGHSWAYMWKCL [Phage-341] yields Anti-CD28 Fab (SEQ ID NOs: 202, 203) signal of 1.85

The binder YCDGHSLAYIAKCL [Phage-437] showed Anti-CD28 Fab (SEQ ID NOs: 202, 203) signal equal to 1.7

Looking up YCAGHTQEYMYKCL [Phage-438] , I found its Anti-CD28 Fab (SEQ ID NOs: 202, 203) signal recorded as 1.7

The recorded Anti-CD28 Fab (SEQ ID NOs: 202, 203) signal for YCDGHSSMYMAKCL [Phage-361] is 1.82
